tgt: FAD-linked sulfhydryl oxidase ALR (Homo sapiens)
Sequence (P55789 whole entry): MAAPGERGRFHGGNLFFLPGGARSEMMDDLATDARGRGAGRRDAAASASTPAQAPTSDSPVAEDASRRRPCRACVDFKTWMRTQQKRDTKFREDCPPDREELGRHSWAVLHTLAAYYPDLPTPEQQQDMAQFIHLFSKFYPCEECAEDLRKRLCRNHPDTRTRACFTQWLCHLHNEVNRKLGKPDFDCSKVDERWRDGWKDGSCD
assay.details: inhibitors of human ALR sulfhydryl oxidase, dose response, biochemical, H2O2 detection, luminescence, cherry-pick (AID 493248)
Activity calls are given as the source filed them.
Listing of recorded AC50 by entry.

# annotated cases, reported AC50 shown
> print(dat)
                                   molecule  recorded.metric  reported.measurement
1  Cc1cc(C)c(S(=O)(=O)Nc2ccc(N(C)C)cc2)c(C)c1-n1cnnn1             AC50       197 nM (active)
2  Cc1ccc(C(=O)N2CCN(c3ccccc3O)CC2)cc1S(=O)(=O)N1CCCCC1             AC50      9330 nM (active)
3                Sc1n[nH]c(-c2cccc(Cl)c2)n1             AC50        97 nM (active)
4            S=c1[nH]nc(-c2ccco2)n1C1CCCCC1             AC50      5640 nM (active)
5                CNc1nnc(CSc2nc3ccccc3s2)s1             AC50       714 nM (active)

Please look at O=C(CC(Nc1ccccc1Cl)C(=O)O)c1ccccc1 (centres undefined) and tell me its recorded AC50 on FAD-linked sulfhydryl oxidase ALR (Homo sapiens).
13000 nM (active)

Please look at Nc1ccc(-c2cc(N)n(-c3ccccc3)n2)cc1 and tell me its recorded AC50 on FAD-linked sulfhydryl oxidase ALR (Homo sapiens).
800 nM (active)

Please look at Nc1ccc(Oc2cccc(Oc3ccc(N)cc3)c2)cc1 and tell me its recorded AC50 on FAD-linked sulfhydryl oxidase ALR (Homo sapiens).
677 nM (active)

Please look at Oc1cc2c(c(Cl)c1O)CCNCC2c1ccccc1 (centres undefined) and tell me its recorded AC50 on FAD-linked sulfhydryl oxidase ALR (Homo sapiens).
3830 nM (active)

----------
tgt: Cytochrome P450 2C19 (Homo sapiens)
Sequence (P33261 whole entry): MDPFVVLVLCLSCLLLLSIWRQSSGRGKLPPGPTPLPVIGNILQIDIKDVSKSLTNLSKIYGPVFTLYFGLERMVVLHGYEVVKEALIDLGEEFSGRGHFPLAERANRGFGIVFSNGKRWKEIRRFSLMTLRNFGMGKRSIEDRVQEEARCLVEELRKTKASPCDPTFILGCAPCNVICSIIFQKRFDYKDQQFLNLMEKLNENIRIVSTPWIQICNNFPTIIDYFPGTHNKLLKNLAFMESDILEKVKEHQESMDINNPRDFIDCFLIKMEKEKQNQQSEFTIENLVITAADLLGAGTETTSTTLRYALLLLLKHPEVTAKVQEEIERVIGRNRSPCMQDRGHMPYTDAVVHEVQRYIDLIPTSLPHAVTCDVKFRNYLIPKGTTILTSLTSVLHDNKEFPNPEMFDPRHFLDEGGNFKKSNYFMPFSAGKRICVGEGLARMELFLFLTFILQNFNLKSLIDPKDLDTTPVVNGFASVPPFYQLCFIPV
assay.details: Cytochrome panel assay with activity outcomes. Panel member name: p450-cyp2c19 Compounds with AC50 equal or less than 10 uM are considered active
Assay type: functional
recorded.conditions: read-out: AC50
recorded.metric: AC50

# annotated cases, reported AC50 shown
> print(dat)
                           smiles.structure  recorded.metric      reported.measurement
1    Cc1cc(C)n(-c2nc(NC(C)C)nc(NC(C)C)n2)n1             AC50    35.5 µM (inconclusive)
2  Cc1ccc(-c2nnc(-c3ccccc3S(=O)(=O)Cc3ccc(Cl)cc3)o2)cc1             AC50    7.94 µM (inconclusive)
3           CCn1c(=O)c2c(nc3n2CCS3)n(C)c1=O             AC50      10 µM (inconclusive)
4               Cc1nnc(SCC(=O)Nc2nccs2)nc1O             AC50      10 µM (inconclusive)
5   Cc1ccc(OCC(=O)NNC(=O)c2cc3ccccc3o2)cc1C             AC50    3.55 µM (inconclusive)
6    O=C(Cn1cnc2c(oc3ccccc32)c1=O)NCc1ccco1             AC50      20 µM (inconclusive)
7  CN(C)c1ccc(/C=C2/C(=O)N(c3ccc([N+](=O)[O-])cc3)N=C2N2CCOCC2)cc1             AC50  0.0224 µM (inconclusive)
8  Cc1ccc(C(=O)Nc2cccc(-c3cnc4ccccc4n3)c2)cc1             AC50    1.58 µM (inconclusive)

We next turn to a different molecule, shown below.
For Cc1cccc(CNc2nc(-c3c(C)noc3C)nc3ccccc23)c1 , write its AC50.
3.16 µM (inconclusive)
